Tested System: GABARAPL2 Gamma-aminobutyric acid receptor-associated protei (Homo sapiens)
Construct: isoTOP-ABPP experiments performed in cell lysates (in vitro); endogenous in cells; host or cells: soluble proteome of human cancer cell lines (MDA-MB-231, Ramos, Jurkat)
Sequence (P60520 1-116 limits assumed): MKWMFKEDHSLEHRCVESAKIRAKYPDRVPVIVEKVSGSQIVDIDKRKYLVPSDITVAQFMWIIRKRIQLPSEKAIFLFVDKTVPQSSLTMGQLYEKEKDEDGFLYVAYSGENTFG
Experimental Details: competitive isoTOP-ABPP
Format: binding
Experimental Parameters: 50 uM, in vitro, sol, 231
Measurement Kind: isoTOP-ABPP ratio (R) at liganded lysine P60520_K46

O=C(Oc1ccc([N+](=O)[O-])cc1[N+](=O)[O-])c1ccc(-c2ccccc2)cc1; 0.8
O=C(CC12CC3CC(CC(C3)C1)C2)Oc1ccc([N+](=O)[O-])cc1[N+](=O)[O-]; 1.0
CC(C)(C)OC(=O)NCCCC(=O)Oc1ccc([N+](=O)[O-])cc1[N+](=O)[O-]; 1.0
O=C(Oc1ccc([N+](=O)[O-])cc1[N+](=O)[O-])c1ccc2ccccc2n1; 0.9
O=C(Oc1ccc([N+](=O)[O-])cc1[N+](=O)[O-])c1ccc(Oc2ccccc2)cc1 [fragment 39, 2,4-Dinitrophenyl 4-phenoxybenzoate]; 0.8
O=C(Oc1ccc([N+](=O)[O-])cc1[N+](=O)[O-])C(c1ccccc1)(c1ccccc1)c1ccccc1 [fragment 42, 2,4-Dinitrophenyl 2,2,2-triphenylacetate]; 0.9
